Kindly state FC (fold change) for each of the entries shown.
PROTOCOL_SUMMARY: Example 4: dose response of FKBP constructs 160-255, Ec50, Ec90 and fold change (raw and normalized to mCherry)
Type: cell-based
MEASUREMENT_CONDITIONS: fold change during initial analysis
Answers are plain numbers.

// known answers, use as guide
MOLECULE	RECORDED_ENDPOINT	RECORDED_MEASUREMENT
FKBP-200: FKBP13 DRD-AcGFP construct of Table 10 (protein, Description of sequence: Construct Name: FKBP-200; Mutation(s): Q72R Q84E A117W V85R DRD D62S) HCPIKSRKGDVLHMHYTGKLESGTEFDSSLPRNQPFVFSLGTGERIKGWDQGLLGMCEGEKRKLVIPSELGYGERGWPPKIPGGATLVFEVELLKIER	FC (fold change)	33.9
FKBP-246 (protein, Description of sequence: Construct Name: FKBP-246; Mutation(s): Q72R Q84E A117W V85R DRD S69H) HCPIKSRKGDVLHMHYTGKLEDGTEFDSHLPRNQPFVFSLGTGERIKGWDQGLLGMCEGEKRKLVIPSELGYGERGWPPKIPGGATLVFEVELLKIER	FC (fold change)	30.4
FKBP-185 (protein, Description of sequence: Construct Name: FKBP-185; Mutation(s): Q72R Q84E A117W V85R DRD M54A D50L T57I I136L) HCPIKSRKGAVLHAHYIGKLEDGTEFDSSLPRNQPFVFSLGTGERIKGWDQGLLGMCEGEKRKLVIPSELGYGERGWPPKIPGGATLVFEVELLKLER	FC (fold change)	40.2
FKBP-239 (protein, Description of sequence: Construct Name: FKBP-239; Mutation(s): Q72R Q84E A117W DRD E61Y) HCPIKSRKGDVLHMHYTGKLYDGTEFDSSLPRNQPFVFSLGTGEVIKGWDQGLLGMCEGEKRKLVIPSELGYGERGWPPKIPGGATLVFEVELLKIER	FC (fold change)	31.1
FKBP-220: FKBP13 DRD-AcGFP construct of Table 10 (protein, Description of sequence: Construct Name: FKBP-220; Mutation(s): Q72R Q84E A117W V85R DRD T25G) HCPIKSRKGDVLHMHYTGKLEDGGEFDSSLPRNQPFVFSLGTGERIKGWDQGLLGMCEGEKRKLVIPSELGYGERGWPPKIPGGATLVFEVELLKIER	FC (fold change)	34.2

Exercise: // returns reported FC (fold change) for input FKBP-165 (protein, Description of sequence: Construct Name: FKBP-165; Mutation(s): Q72R Q84E A117W DRD M54A P119V V85R) HCPIKSRKGDVLHAHYTGKLEDGTEFDSSLPRNQPFVFSLGTGERIKGWDQGLLGMCEGEKRKLVIPSELGYGERGWPVKIPGGATLVFEVELLKIER
Solution: 47.6
